- method_notes: Permeability assay across hiPSC-derived BMECs clone 1 on Transwell, co-culture with human astrocytes
- assay_conditions: human, Permeability human BBB_Cl1, Figure 5C, mean ± sd
readout_kind: Papp (×10⁻⁶ cm/s)
# number only, unit ×10⁻⁶ cm/s dropped from output

Item: O=C1NC(=O)C(c2ccccc2)(c2ccccc2)N1 [phenytoin] | Papp: 21.3

----------
- method_notes: Permeability assay across hiPSC-derived BMECs clone 1 on Transwell, co-culture with human astrocytes
readout_kind: Papp (×10⁻⁶ cm/s)
The reply should contain only the number, in ×10⁻⁶ cm/s.

Entry CC(C)[C@H](NC(=O)[C@H](CCC(=O)O)NC(=O)[C@H](Cc1ccccc1)NC(=O)[C@@H](C)NC(=O)[C@@H](N)Cc1ccc(O)cc1)C(=O)N[C@H](C(=O)NCC(N)=O)C(C)C [[D-Ala2]deltorphin II] ; Papp = 3.8

----------
- method_notes: in vitro
- assay_conditions: human, Permeability frozen
readout_kind: Papp (×10⁻⁶ cm/s)
Use ×10⁻⁶ cm/s as the unit, but write only the number.

Measured Papp of OC[C@@H](O)[C@@H](O)[C@H](O)[C@H](O)CO [mannitol] : 0.67

----------
- method_notes: in vitro
- assay_conditions: human, Permeability human BBB_Cl1
Output true (1) for Papp not less than 4 ×10⁻⁶ cm/s; output false (0) otherwise.

Data request: # bool: Papp of OC[C@@H](O)[C@@H](O)[C@H](O)[C@H](O)CO >= 4 ×10⁻⁶ cm/s
Data returned: false (0)

Data request: Dear colleague, could you confirm whether OC[C@H]1OC(O)[C@H](O)[C@@H](O)[C@@H]1O (stereo partly shown) has Papp at or above 4 ×10⁻⁶ cm/s?
Data returned: true (1)

Data request: Could you please find out whether CC(C)NCC(O)COc1cccc2ccccc12 (stereo not shown) has Papp that meets 4 ×10⁻⁶ cm/s or exceeds it?
Data returned: true (1)

Data request: Exam item: decide whether the reported Papp for O=C(O)c1cc(=O)c2ccccc2[nH]1 is at least 4 ×10⁻⁶ cm/s.
Data returned: false (0)

Data request: Please indicate if the recorded Papp for COc1cccc2c1C(=O)c1c(O)c3c(c(O)c1C2=O)C[C@@](O)(C(C)=O)C[C@@H]3O[C@H]1C[C@H](N)[C@H](O)[C@H](C)O1 meets or exceeds 4 ×10⁻⁶ cm/s.
Data returned: true (1)

Data request: // inclusive: Papp at least 4 ×10⁻⁶ cm/s? input: CC(=O)O[C@H]1C(=O)[C@@]2(C)[C@H]([C@H](OC(=O)c3ccccc3)[C@]3(O)C[C@H](OC(=O)[C@H](O)[C@@H](NC(=O)c4ccccc4)c4ccccc4)C(C)=C1C3(C)C)[C@]1(OC(C)=O)CO[C@@H]1C[C@@H]2O
Data returned: true (1)

Data request: # bool: Papp of CC(C)C[C@H](N)C(=O)O >= 4 ×10⁻⁶ cm/s
Data returned: true (1)

Data request: Form field: Papp at least 4 ×10⁻⁶ cm/s? Entry: CN(Cc1cnc2nc(N)nc(N)c2n1)c1ccc(C(=O)N[C@@H](CCC(=O)O)C(=O)O)cc1 [methotrexate]
Data returned: false (0)

Data request: # check: Papp of Cn1c(=O)c2c(ncn2C)n(C)c1=O is greater than or equal to 4 ×10⁻⁶ cm/s
Data returned: true (1)

----------
- Test system: hiPSC-derived BMECs
readout_kind: Permeability classification in words

Worked set:
* COc1cccc2c1C(=O)c1c(O)c3c(c(O)c1C2=O)C[C@@](O)(C(C)=O)C[C@@H]3O[C@H]1C[C@H](N)[C@H](O)[C@H](C)O1 | medium permeability
* CC[C@]1(O)C[C@@H]2CN(CCc3c([nH]c4ccccc34)[C@@](C(=O)OC)(c3cc4c(cc3OC)N(C)[C@H]3[C@@](O)(C(=O)OC)[C@H](OC(C)=O)[C@]5(CC)C=CCN6CC[C@]43[C@@H]65)C2)C1 | medium permeability
* CC(C)NCC(O)COc1cccc2ccccc12 (stereo not drawn) | highly permeable
* Cn1c(=O)c2c(ncn2C)n(C)c1=O | highly permeable

Consider CC(C)C[C@H](N)C(=O)O . Its measured Permeability classification in words is highly permeable
